system: T1, V3-46 N31Q phage clone
T1 construct: also called V3-46q
T1 sequence (VH, as listed by the source, chain 1 of 2): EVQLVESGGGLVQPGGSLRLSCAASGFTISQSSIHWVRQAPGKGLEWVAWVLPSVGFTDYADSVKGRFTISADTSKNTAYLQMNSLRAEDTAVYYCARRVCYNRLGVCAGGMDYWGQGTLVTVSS
T1 sequence (VL, as listed by the source, chain 2 of 2): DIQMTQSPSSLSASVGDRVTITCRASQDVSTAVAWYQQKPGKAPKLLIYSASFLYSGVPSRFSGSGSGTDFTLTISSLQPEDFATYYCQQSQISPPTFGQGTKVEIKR
protocolSummary: phage competition ELISA, ECD in solution (printed Phage ID50)
recordedEndpoint: IC50 (nM)

binder | recordedEndpoint | reportedMeasurement
mouse BR3 extracellular domain (receptor, also called mBR3-ECD; mBR-ECD) MGARRLRVRSQRSRDSSVPTQCNQTECFDPLVRNCVSCELFHTPDTGHTSSLEPGTALQPQEGS | IC50 | 2.44

Reference source: patent US20100280227A1
